- assayed-target: hH4R (Homo sapiens)
- protocol: β-arrestin recruitment assay (LiveBLAzer, Tango-H4-bla U2OS cells)
- Type: cell-based
- Design: expressed in transfected cells; host or cells: Tango-H4-bla U2OS cells
- condition-label: antagonist mode, histamine 500 nM (EC80), Tango-H4-bla U2OS cells; read-out: β-arrestin hH4R IC50 ± SEM
recorded-metric: pIC50
pIC50 here: minus log base 10 of the concentration, concentration in moles per litre.

Which pIC50 reading was recorded for the molecule `CC(C)CCc1nc(N)nc(N2CCN(C)CC2)n1` ?
7.62

Which pIC50 reading was recorded for the molecule `C=CCCc1nc(N)nc(N2CCN(C)CC2)n1` ?
6.84

Which pIC50 reading was recorded for the molecule C=CCC(C)c1nc(N)nc(N2CCN(C)CC2)n1 (centres unmarked) ?
6.13

Which pIC50 reading was recorded for the molecule CCC(C)Cc1nc(N)nc(N2CCN(C)CC2)n1 (centres unmarked) ?
7.42

---
Which pIC50 reading was recorded for the molecule `CN1CCN(c2nc(N)nc(CC3CCCC3)n2)CC1` ?
8.00

Which pIC50 reading was recorded for the molecule `CN1CCN(c2nc(N)nc(C3CCCC3)n2)CC1` ?
7.16

Which pIC50 reading was recorded for the molecule `CN1CCN(c2nc(N)nc(C3CCC3)n2)CC1` ?
7.00

Which pIC50 reading was recorded for the molecule `CCCCc1nc(N)nc(N2CCN(C)CC2)n1` ?
7.09

Which pIC50 reading was recorded for the molecule `CC/C=C/Cc1nc(N)nc(N2CCN(C)CC2)n1` ?
6.42

Which pIC50 reading was recorded for the molecule CN1CCN(c2nc(N)nc(CC3C=CCC3)n2)CC1 (centres unmarked) ?
7.85

Which pIC50 reading was recorded for the molecule `CN1CCN(c2nc(N)nc(C3CCCCC3)n2)CC1` ?
7.00

----------
- assayed-target: UniProt Q9H3N8
- protocol: β-arrestin recruitment assay (LiveBLAzer, Tango-H4-bla U2OS cells)
- Assay type: cell-based
- Set-up: expressed in transfected cells; host or cells: Tango-H4-bla U2OS cells
- condition-label: at 10 µM, antagonist mode
recorded-metric: β-arrestin hH4R % of max. Antagonist Activity at 10 µM (%)
Output spec: scalar in %, unitless text.

Reference set, count: 4
Which β-arrestin hH4R % of max. Antagonist Activity at 10 µM reading was recorded for the compound S=C(NC1CCCCC1)N1CCC(c2cnc[nH]2)CC1 [Thioperamide, reference compound] ?
102

Which β-arrestin hH4R % of max. Antagonist Activity at 10 µM reading was recorded for the compound `CCCCc1nc(N)nc(N2CCN(C)CC2)n1` ?
96

Which β-arrestin hH4R % of max. Antagonist Activity at 10 µM reading was recorded for the compound `C=CCCc1nc(N)nc(N2CCN(C)CC2)n1` ?
94

Which β-arrestin hH4R % of max. Antagonist Activity at 10 µM reading was recorded for the compound C=CCC(C)c1nc(N)nc(N2CCN(C)CC2)n1 (centres unmarked) ?
92

Attention now turns to another entry.
Which β-arrestin hH4R % of max. Antagonist Activity at 10 µM reading was recorded for the compound `CN1CCN(c2nc(N)nc(CC3=CCCCC3)n2)CC1` ?
102

----------
- assayed-target: hH4R (Homo sapiens, UniProt Q9H3N8)
- Sequence (Q9H3N8 whole entry): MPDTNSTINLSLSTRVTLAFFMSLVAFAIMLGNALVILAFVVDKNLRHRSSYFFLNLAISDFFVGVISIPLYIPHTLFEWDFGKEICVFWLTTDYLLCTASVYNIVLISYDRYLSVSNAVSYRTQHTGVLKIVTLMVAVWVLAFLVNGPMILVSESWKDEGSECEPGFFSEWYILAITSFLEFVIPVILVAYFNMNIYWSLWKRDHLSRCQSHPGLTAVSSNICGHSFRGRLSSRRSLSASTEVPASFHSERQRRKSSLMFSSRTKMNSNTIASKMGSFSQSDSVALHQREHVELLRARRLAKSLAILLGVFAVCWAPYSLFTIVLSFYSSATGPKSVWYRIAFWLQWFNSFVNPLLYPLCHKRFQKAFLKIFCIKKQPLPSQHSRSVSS
- protocol: β-arrestin recruitment assay (LiveBLAzer, Tango-H4-bla U2OS cells)
- Type: cell-based
- Design: expressed in transfected cells; host or cells: Tango-H4-bla U2OS cells
- condition-label: antagonist mode, histamine 500 nM (EC80), Tango-H4-bla U2OS cells; read-out: β-arrestin hH4R IC50 ± SEM
- Description: Compounds were tested using LiveBLAzer^TM assay and Tango-H4-bla U2OS cells, allowing the estimation of the percentage of β-arrestin recruitment in response to tested treatments. All used media and reagents except DMSO and tested compounds were purchased from ThermoFisher Scientific, Waltham, MA, USA. […] Cells were incubated for 2 h at room temperature in the dark then the signal was read using an EnSpire microplate reader (PerkinElmer, Waltham, MA, USA). […]
recorded-metric: pIC50
pIC50 here: minus log base 10 of the concentration, concentration in moles per litre.

Reference set, count: 3
Which pIC50 reading was recorded for the compound C=CC(C)Cc1nc(N)nc(N2CCN(C)CC2)n1 (stereo not drawn) ?
7.18

Which pIC50 reading was recorded for the compound `CN1CCN(c2nc(N)nc(CC3CCCCC3)n2)CC1` ?
7.17

Which pIC50 reading was recorded for the compound `CCCCCc1nc(N)nc(N2CCN(C)CC2)n1` ?
7.46

---
Which pIC50 reading was recorded for the compound `CN1CCN(c2nc(N)nc(CC3=CCCCC3)n2)CC1` ?
7.39

Which pIC50 reading was recorded for the compound CCCC(C)c1nc(N)nc(N2CCN(C)CC2)n1 (stereo not drawn) ?
7.01

Which pIC50 reading was recorded for the compound `CN1CCN(c2nc(N)nc(C3CC3)n2)CC1` ?
6.54
